Listed below: pIC50 values for each entry.
# Measurement target: human Bub1 (Homo sapiens (Human))
# Sequence (O43683 704-1085): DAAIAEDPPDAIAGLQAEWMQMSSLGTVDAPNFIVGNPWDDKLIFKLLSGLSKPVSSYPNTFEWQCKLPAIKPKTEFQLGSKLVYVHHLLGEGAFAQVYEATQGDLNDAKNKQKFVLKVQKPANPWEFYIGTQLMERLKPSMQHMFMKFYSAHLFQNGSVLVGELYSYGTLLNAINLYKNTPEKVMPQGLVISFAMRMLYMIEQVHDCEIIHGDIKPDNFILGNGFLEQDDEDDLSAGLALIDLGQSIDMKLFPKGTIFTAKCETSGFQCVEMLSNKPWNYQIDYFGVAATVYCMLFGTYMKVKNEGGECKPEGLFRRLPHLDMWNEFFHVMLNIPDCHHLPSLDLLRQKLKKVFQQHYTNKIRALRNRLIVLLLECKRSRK
# Test description: Bub1 kinase assay (TR-FRET)
# Assay type: biochemical
# Protocol conditions: 10 μM ATP; read-out: Bub1 avg (IC50 [mol/l])
pIC50: −log10 of the molar value.
Quantity name: pIC50

                                    molecule  quantity_name  measured
 0  CCNC(=O)c1csc(Nc2snc(C)c2C(=O)Nc2ccc(F)c(F)c2)n1 [Example 99]          pIC50    < 4.70
 1  CCc1ccccc1NC(=O)c1c(C)nsc1Nc1nc(C)nc2ccccc12 [Example 35]          pIC50    < 4.70
 2  COc1ccc(NC(=O)c2c(C)nsc2Nc2cncc(C(F)(F)F)n2)cn1 [Example 84]          pIC50    < 4.70
 3  CCc1ccccc1NC(=O)c1c(C)nsc1Nc1ncnc2ccsc12 [Example 13]          pIC50    < 4.70
 4  Cc1nsc(Nc2cncc(Cl)n2)c1C(=O)Nc1ccc(F)c(F)c1 [Example 71]          pIC50    < 4.70
 5  CCc1ccccc1NC(=O)c1c(C)nsc1Nc1ccnc(C#N)n1 [Example 6]          pIC50    < 4.70
 6  Cc1nsc(Nc2cnc(Br)cn2)c1C(=O)Nc1ccc(F)c(F)c1 [Example 77]          pIC50    < 4.70
 7  CCc1ccccc1NC(=O)c1c(C)nsc1Nc1nccc(-c2ccccc2)n1 [Example 5]          pIC50    < 4.70
 8  COc1ccc(NC(=O)c2c(C)nsc2Nc2cnc(C(F)(F)F)cn2)cn1 [Example 85]          pIC50    < 4.70
 9  Cc1nsc(Nc2nc3c(C(F)(F)F)ccnc3s2)c1C(=O)Nc1ccc(F)c(F)c1 [Example 58]          pIC50    < 4.70
10  Cc1nsc(Nc2cnc3ccccc3n2)c1C(=O)Nc1ccc(Oc2ccc(F)cc2F)nc1 [Example 113]          pIC50    < 4.70
11  CCc1ccccc1NC(=O)c1c(C)nsc1Nc1ncccc1C(F)(F)F [Example 3]          pIC50    < 4.70
12  Cc1nsc(Nc2cncc(C(=O)N3CCOCC3)n2)c1C(=O)Nc1ccc(F)c(F)c1 [Example 107]          pIC50    < 4.70
13  CCNC(=O)c1cncc(Nc2snc(C)c2C(=O)Nc2ccc(F)c(F)c2)n1 [Example 73]          pIC50      5.21
14  COc1ccc(NC(=O)c2c(C)nsc2Nc2cnc3ccccc3n2)cn1 [Example 94]          pIC50    < 4.70
15  CCc1ccccc1NC(=O)c1c(C)nsc1Nc1nc(C(=O)OC)co1 [Example 91]          pIC50    < 4.70
16  CCc1cncc(Nc2snc(C)c2C(=O)Nc2ccc(F)c(F)c2)n1 [Example 76]          pIC50    < 4.70
17  COC(=O)c1cnc(Nc2snc(C)c2C(=O)Nc2ccc(OC)nc2)cn1 [Example 32]          pIC50    < 4.70
18  CCc1ccccc1NC(=O)c1c(C)nsc1Nc1cnc2ccccc2n1 [Example 19]          pIC50    < 4.70
19  COc1ccc(NC(=O)c2c(C)nsc2Nc2cnc3cc(C(F)(F)F)ccc3n2)cn1 [Example 45]          pIC50    < 4.70
20  CCc1ccccc1NC(=O)c1c(C)nsc1Nc1cnc2cc(F)ccc2n1 [Example 20]          pIC50    < 4.70
21  Cc1nsc(Nc2cc(C#N)ccn2)c1C(=O)Nc1ccc(Cl)c(F)c1 [Example 54]          pIC50    < 4.70
22  Cc1nsc(Nc2cnc3ccccc3n2)c1C(=O)Nc1ccc(OC2CCCCC2)nc1 [Example 115]          pIC50    < 4.70
23  Cc1nsc(Nc2cc(C#N)ccn2)c1C(=O)Nc1ccc(F)c(F)c1 [Example 27]          pIC50    < 4.70
24  COC(=O)c1cncc(Nc2snc(C)c2C(=O)Nc2ccc(F)c(F)c2)n1 [Example 66]          pIC50    < 4.70
25  CCOC(=O)c1sc(Nc2snc(C)c2C(=O)Nc2ccc(OC)nc2)nc1C [Example 30]          pIC50    < 4.70
26  Cc1nsc(Nc2ccc(C#N)cn2)c1C(=O)Nc1ccc(OC(C)C)nc1 [Example 110]          pIC50    < 4.70
27  CCc1ccccc1NC(=O)c1c(C)nsc1Nc1nc2ccccc2o1 [Example 11]          pIC50      5.42
28  CCc1ccccc1NC(=O)c1c(C)nsc1Nc1cnc2cc(Cl)ccc2n1 [Example 86]          pIC50    < 4.70
29  CCc1ccccc1NC(=O)c1c(C)nsc1Nc1nccc(OC)n1 [Example 16]          pIC50    < 4.70
30  COc1ccc(NC(=O)c2c(C)nsc2Nc2cnc3c(F)c(F)ccc3n2)cn1 [Example 43]          pIC50    < 4.70
31  Cc1cncc(Nc2snc(C)c2C(=O)Nc2ccc(F)c(F)c2)n1 [Example 69]          pIC50    < 4.70
32  Cc1nsc(Nc2nc3c(C(F)(F)F)cccc3s2)c1C(=O)Nc1ccc(Cl)c(F)c1 [Example 53]          pIC50    < 4.70
33  Cc1nsc(Nc2cnccn2)c1C(=O)Nc1ccc(Cl)c(F)c1 [Example 56]          pIC50    < 4.70
34  Cc1nsc(Nc2cnc3cc(C(F)(F)F)ccc3n2)c1C(=O)Nc1ccc(F)c(F)c1 [Example 60]          pIC50    < 4.70
35  CCc1ccccc1NC(=O)c1c(C)nsc1Nc1ncnc2ccccc12 [Example 10]          pIC50    < 4.70

###

Recorded log10 of IC50 by entry
# Test system: HeLa-MaTu-ADR
# Test description: Proliferation assay (crystal violet), HeLa-MaTu-ADR
# Assay type: cell-based
# Protocol conditions: 96 h, 4 days, read-out: Inhibition of proliferation IC50 HeLa-MaTu-ADR
Quantity name: log10 of IC50 (log10 of the value in nM)

In [3]: df
Out[3]:
                                    compound  measured
 0  Cc1nsc(Nc2ccc(C#N)cn2)c1C(=O)Nc1ccc(F)c(F)c1 [Example 28]      2.08
 1  COc1ccc(NC(=O)c2c(C)nsc2Nc2nc3c(C(F)(F)F)cccc3s2)cn1 [Example 48]      2.54
 2  CCc1ccccc1NC(=O)c1c(C)nsc1Nc1cnc2ccccc2n1 [Example 19]      2.61
 3  Cc1nsc(Nc2ccc(C#N)cn2)c1C(=O)Nc1ccc(Cl)c(F)c1 [Example 52]      2.11
 4  CCc1ccccc1NC(=O)c1c(C)nsc1Nc1cnc2cccc(C)c2n1 [Example 33]      2.93
 5  CCNc1cncc(Nc2snc(C)c2C(=O)Nc2ccc(F)c(F)c2)n1 [Example 78]      3.04
 6  Cc1nsc(Nc2cncc(Cl)n2)c1C(=O)Nc1ccc(F)c(F)c1 [Example 71]      2.36
 7  CCNC(=O)c1cncc(Nc2snc(C)c2C(=O)Nc2ccc(F)c(F)c2)n1 [Example 73]      2.00
 8  Cc1nsc(Nc2cc(C#N)ccn2)c1C(=O)Nc1ccc(Oc2ccc(F)cc2F)nc1 [Example 114]      2.84
 9  Cc1nsc(Nc2ccc(C(F)(F)F)nn2)c1C(=O)Nc1ccc(F)c(F)c1 [Example 83]      2.57
10  CCc1ccccc1NC(=O)c1c(C)nsc1Nc1cnc2cc(Cl)ccc2n1 [Example 86]      2.41
11  CCc1ccccc1NC(=O)c1c(C)nsc1Nc1ccnc(C#N)n1 [Example 6]      3.28
12  Cc1nsc(Nc2cncc(C(F)(F)F)n2)c1C(=O)Nc1ccc(F)c(F)c1 [Example 82]      2.11
13  CCc1cnc(Nc2snc(C)c2C(=O)Nc2ccc(F)c(F)c2)cn1 [Example 79]      2.54
14  Cc1nsc(Nc2cc(C#N)ccn2)c1C(=O)Nc1ccc(Cl)c(F)c1 [Example 54]      2.81
15  Cc1nsc(Nc2cnc(Cl)cn2)c1C(=O)Nc1ccc(F)c(F)c1 [Example 74]      2.11
16  COc1ccc(NC(=O)c2c(C)nsc2Nc2cnc3cccc(C)c3n2)cn1 [Example 22]      2.88
17  Cc1nsc(Nc2cnc(C(F)(F)F)cn2)c1C(=O)Nc1ccc(F)c(F)c1 [Example 81]      2.36
18  Cc1nsc(Nc2cnc3cc(C(F)(F)F)ccc3n2)c1C(=O)Nc1ccc(F)c(F)c1 [Example 60]      2.38
19  Cc1nsc(Nc2cncc(-n3cccn3)n2)c1C(=O)Nc1ccc(F)c(F)c1 [Example 64]      2.43
20  CNC(=O)c1cnc(Nc2snc(C)c2C(=O)Nc2ccc(F)c(F)c2)cn1 [Example 75]      2.72
21  Cc1nsc(Nc2cncc(-n3cccn3)n2)c1C(=O)Nc1ccc(Cl)c(F)c1 [Example 67]      2.26
22  Cc1nsc(Nc2cnc3ccccc3n2)c1C(=O)Nc1ccc(F)c(F)c1 [Example 50]      2.32
23  CCc1ccccc1NC(=O)c1c(C)nsc1Nc1cc(C#N)ccn1 [Example 4]      3.26
24  CCc1ccccc1NC(=O)c1c(C)nsc1Nc1cnc2ccc(Cl)cc2n1 [Example 41]      2.81
25  COc1ccc(NC(=O)c2c(C)nsc2Nc2nc3c(C(F)(F)F)cccc3s2)cc1F [Example 47]      1.92
26  Cc1nsc(Nc2cnc3ccccc3n2)c1C(=O)Nc1ccc(Cl)c(F)c1 [Example 40]      2.52
27  CCOC(=O)c1cnn2ccc(Nc3snc(C)c3C(=O)Nc3ccc(F)c(F)c3)nc12 [Example 55]      2.15
28  Cc1nsc(Nc2cnc3cc(C(F)(F)F)ccc3n2)c1C(=O)Nc1ccc(Cl)c(F)c1 [Example 68]      2.51
29  Cc1nsc(Nc2cnccn2)c1C(=O)Nc1ccc(Cl)c(F)c1 [Example 56]      2.57
30  CCc1ccccc1NC(=O)c1c(C)nsc1Nc1nc(C)nc2ccccc12 [Example 35]      2.79
31  COc1ccc(NC(=O)c2c(C)nsc2Nc2cnc3cc(C(F)(F)F)ccc3n2)cn1 [Example 45]      2.48
32  Cc1nsc(Nc2cnc3cc(F)ccc3n2)c1C(=O)Nc1ccc(F)c(F)c1 [Example 46]      2.04
